Item-by-item account of MIC
tested on: P. aeruginosa PA1280; assay: MIC, P. aeruginosa PA1280; type: cell-based, Pseudomonas aeruginosa; conditions: Pseudomonas aeruginosa, PA1280; MH broth (Table 4); read-out: PA1280 MIC

molecule: C[C@@H](O)[C@H]1C(=O)N2C(C(=O)O)=C(S[C@@H]3CN[C@H](C(=O)N(C)C)C3)[C@H](C)[C@H]12 [Meropenem]
reported_relation: =
MIC / µg/mL: 0.5

molecule: CN(C)c1cc(NC(=O)CNC(C)(C)C)c(O)c2c1C[C@H]1C[C@H]3[C@H](N(C)C)C(O)=C(C(N)=O)C(=O)[C@@]3(O)C(O)=C1C2=O [Tigecycline]
reported_relation: =
MIC / µg/mL: 16

molecule: CC(=O)NC[C@H]1CN(c2ccc(N3CCOCC3)c(F)c2)C(=O)O1 [Linezolid]
reported_relation: >
MIC / µg/mL: 512

molecule: CO[C@@H]1[C@@H](OC(N)=O)[C@@H](O)[C@H](Oc2ccc3c(O)c(NC(=O)c4ccc(O)c(CC=C(C)C)c4)c(=O)oc3c2C)OC1(C)C [Novobiocin]
reported_relation: >
MIC / µg/mL: 512

* * *

system: E. coli MG1655; assay: MIC, E. coli MG1655; assay type: cell-based; settings: Escherichia coli, MG1655; CLSI (Table 8); read-out: E. coli MG1655 MIC

compound: CC(=O)O[C@H]1C[C@@]2(C)[C@@H](C[C@@H](O)[C@H]3[C@@]4(C)CC[C@@H](O)[C@@H](C)[C@@H]4CC[C@@]32C)/C1=C(\CCC=C(C)C)C(=O)O/N=C(\N)CN [FA prodrug 1]
reported_relation: >
MIC (µg/mL): 256
//
compound: CC(=O)O[C@H]1C[C@@]2(C)[C@@H](C[C@@H](O)[C@H]3[C@@]4(C)CC[C@@H](O)[C@@H](C)[C@@H]4CC[C@@]32C)/C1=C(\CCC=C(C)C)C(=O)O
reported_relation: =
MIC (µg/mL): 512
//
compound: CC(=O)O[C@H]1C[C@@]2(C)[C@@H](C[C@@H](O)[C@H]3[C@@]4(C)CC[C@@H](O)[C@@H](C)[C@@H]4CC[C@@]32C)/C1=C(\CCC=C(C)C)C(=O)O/N=C(\N)CNCCCNCCCN [FA prodrug 3]
reported_relation: =
MIC (µg/mL): 32
//
compound: CC(=O)O[C@H]1C[C@@]2(C)[C@@H](C[C@@H](O)[C@H]3[C@@]4(C)CC[C@@H](O)[C@@H](C)[C@@H]4CC[C@@]32C)/C1=C(\CCC=C(C)C)C(=O)O/N=C(\N)CNCCCN [FA prodrug 2]
reported_relation: =
MIC (µg/mL): 256
